Values compiled from paper PMC11480844.

ratio to parent reference
B1: H2-Kb / B7 (parent)
chain 1: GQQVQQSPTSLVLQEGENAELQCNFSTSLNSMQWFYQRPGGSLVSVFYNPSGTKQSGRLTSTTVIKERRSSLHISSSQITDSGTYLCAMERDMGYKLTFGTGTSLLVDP
chain 2: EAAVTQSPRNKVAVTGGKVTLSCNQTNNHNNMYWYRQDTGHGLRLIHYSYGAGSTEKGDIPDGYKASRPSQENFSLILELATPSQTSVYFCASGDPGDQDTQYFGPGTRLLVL
chain 3: not shown
chain 4: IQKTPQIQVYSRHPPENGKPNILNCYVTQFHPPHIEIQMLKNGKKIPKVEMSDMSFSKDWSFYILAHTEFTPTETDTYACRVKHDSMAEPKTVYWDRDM
chain 5: SIINFEKL

- Variants of: B1
- Assay explanation: % of reporter cells activated (NFAT-GFP), raw; further: test concentration or dose not given here
- Test parameters: with B7; scale: % of reporter cells activated
Value type: ratio to parent

- chain 5 I3L: 1.4
- chain 5 N4M: 1.38
- chain 5 F5N: 1.31
- chain 5 L8T: 0.646
- chain 5 F5D: 1.55
- chain 5 I3P: 1.45
- chain 5 K7D: 1.02
- chain 5 F5R: 0.923
- chain 5 N4Q: 1.08
- chain 5 I3W: 1.48
- chain 5 N4T: 1.12
- chain 5 N4A: 1.31
- chain 5 K7C: 1.05
- chain 5 L8E: 0.326
- chain 5 N4E: 1.35
- chain 5 K7R: 0.358
- chain 5 I2F: 1.05
- chain 5 L8V: 0.585
- chain 5 L8R: 1.69
- chain 5 E6W: 1.09
- chain 5 I2V: 1.43
- chain 5 I2H: 1.83
- chain 5 S1I: 0.969
- chain 5 L8G: 1.42
- chain 5 F5Q: 1.25
- chain 5 S1Q: 2.08
- chain 5 K7E: 1.14
- chain 5 K7Y: 1.18
- chain 5 N4L: 1.82
- chain 5 N4G: 1.15
- chain 5 E6D: 1.43
- chain 5 N4D: 1.69
- chain 5 S1T: 1.62
- chain 5 L8P: 1.11
